- Target Entity: T1, Anti-CD28 scFv (VH-linker 1-VL) (biotinylated (site not stated))
- T1 construct: biotinylated and captured on neutravidin coated plates in the phage ELISA
- T1 sequence (scFv, as listed by the source): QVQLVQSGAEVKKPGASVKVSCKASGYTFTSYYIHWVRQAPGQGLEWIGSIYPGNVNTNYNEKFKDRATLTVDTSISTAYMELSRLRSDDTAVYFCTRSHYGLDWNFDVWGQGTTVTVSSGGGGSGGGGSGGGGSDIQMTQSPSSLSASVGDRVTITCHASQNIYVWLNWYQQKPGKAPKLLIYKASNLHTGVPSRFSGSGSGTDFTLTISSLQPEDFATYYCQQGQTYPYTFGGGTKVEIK
- Experiment Notes: phage ELISA, scFv wells pre-incubated with soluble CD28 (competitor); background signal 0.065
Measured Quantity: Phage binding ELISA CD28 scFv signal in presence of CD28
Kindly provide the number alone.

Below, 3 binders whose answers are already recorded.
[
  {
    "Binder": "MDWCPLYLWNECFN [Phage-24]",
    "Val": 0.247
  },
  {
    "Binder": "MDWCPIHMWADCFA [Phage-69]",
    "Val": 0.143
  },
  {
    "Binder": "MDWCPSYLWNECFF [Phage-62]",
    "Val": 0.133
  }
]

Please find the next binder below.
For record MDWCPRDLWSLCFY [Phage-94] the listed Phage binding ELISA CD28 scFv signal in presence of CD28 is 0.246
